Target sequence: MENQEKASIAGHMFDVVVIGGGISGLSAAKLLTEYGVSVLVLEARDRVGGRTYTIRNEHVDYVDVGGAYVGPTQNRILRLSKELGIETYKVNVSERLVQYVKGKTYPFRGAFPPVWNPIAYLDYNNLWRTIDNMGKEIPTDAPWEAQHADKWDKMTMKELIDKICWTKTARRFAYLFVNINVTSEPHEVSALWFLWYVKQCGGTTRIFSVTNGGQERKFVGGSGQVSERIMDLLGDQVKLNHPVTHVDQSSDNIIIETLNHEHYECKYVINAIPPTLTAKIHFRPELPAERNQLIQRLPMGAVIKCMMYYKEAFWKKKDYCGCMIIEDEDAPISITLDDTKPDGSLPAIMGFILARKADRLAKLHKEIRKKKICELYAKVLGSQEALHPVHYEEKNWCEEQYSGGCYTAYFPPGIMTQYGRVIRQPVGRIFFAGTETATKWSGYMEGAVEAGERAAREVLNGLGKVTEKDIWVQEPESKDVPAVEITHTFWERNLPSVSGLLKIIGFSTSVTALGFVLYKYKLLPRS
pIC50: −log10 of the molar value.
Property: pIC50

[[record]]
compound = "COc1ccc2c(c1)CC(c1c[nH]c3ccc(OC)cc13)N2 (stereo unspecified)"
result_value = 5.60


src = ChEMBL document CHEMBL6071143
